FYI, the data here is from PubChem BioAssay (NCATS).

Assay: BET inhibitor-based combinations targeting novel dependencies in MECOM-rearranged (r) AML: AML-191 cell line (AID 2202236; note: nearly all actives have a fitted effect of over 35% in size)
Conditions: AML-191 viability, CellTiter-Glo luminescence, 48 h; series mostly up to 46 µM
Records with an inconclusive call do not appear. Activity calls are given as the source filed them. Calls come from the whole dose curve; as a rule, active = well fitted inhibition curve with a large enough effect; inconclusive = small, poorly fitted or top-dose-only effect; inactive = flat fitted curve, though single readings scatter.
Outcome codes: active, inactive

{"columns": ["smiles.notation", "class.name"],
 "data": [
  ["Cc1ccc(-c2ncc(Cl)cc2-c2ccc(S(C)(=O)=O)cc2)cn1", "inactive"],
  ["O=C(O)CCCCN(CCc1ccccc1OCc1ccc(CCc2ccccc2)cc1)Cc1ccc(C(=O)O)cc1", "inactive"],
  ["CONC(=O)Nc1ccc(-c2sc3c(c2CN(C)Cc2ccccc2)c(=O)n(-c2ccccc2)c(=O)n3Cc2c(F)cccc2F)cc1", "inactive"],
  ["C[C@@]12O[C@@H](C[C@]1(O)CO)n1c3ccccc3c3c4c(c5c6ccccc6n2c5c31)CNC4=O", "active"],
  ["Nc1nc(F)nc2c1ncn2[C@@H]1O[C@H](COP(=O)(O)O)[C@@H](O)[C@@H]1O", "active"],
  ["CCOC(=O)c1ccc(C#Cc2ccc3c(c2)C(C)(C)CCS3)nc1", "active"],
  ["CC(C)(C)c1nc2c3cc[nH]c(=O)c3c3cc(F)ccc3c2[nH]1", "active"],
  ["NC(CO)(CO)CCc1ccc(Sc2cccc(OCc3ccccc3)c2)cc1Cl", "active"]
]}
